Measured Population Pyknosed Nuclei (%) by item
# Test system: HEK-293T
# Test Name: Multiplex assay against HEK293T
# Type: toxicity, cell-based
# Experimental Setup: human, 24 h, 10 µM, compound concentration 10 uM, replicate 1

1) CC(C)NCC(O)COc1ccc(CCOCC2CC2)cc1.Cl (centres undefined) [BETAXOLOL HYDROCHLORIDE]	55%
2) C=CC(=O)Nc1cccc(C(=O)Nc2ccc(Nc3cc(-c4[nH]c(SC)nc4C)ccn3)cc2)c1	39%
3) CN1CCC[C@@H]1CCO[C@](C)(c1ccccc1)c1ccc(Cl)cc1.O=C(O)/C=C/C(=O)O [CLEMASTINE FUMARATE]	72%
4) Cc1nc(Nc2n[nH]c3c2CN(C(=O)N[C@H](CN(C)C)c2ccccc2)C3(C)C)c2sccc2n1	31%
5) CCN(CC)CCCCNc1ncc2cc(-c3cc(OC)cc(OC)c3)c(NC(=O)NC(C)(C)C)nc2n1	11%

Give Population Pyknosed Nuclei (%) for this entry on HEK-293T: CNc1nc(NCc2ccc(NS(C)(=O)=O)cc2Cl)cc(-c2ccccn2)n1
60%

Give Population Pyknosed Nuclei (%) for this entry on HEK-293T: OC1(c2ccc(Cl)cc2)CCN(Cc2c[nH]c3ccccc23)CC1
81%

Give Population Pyknosed Nuclei (%) for this entry on HEK-293T: O=C1NCN(c2ccccc2)C12CCN(CCCOc1ccc(F)cc1)CC2 [SPIRAMIDE]
62%

Give Population Pyknosed Nuclei (%) for this entry on HEK-293T: CN(C)CC#Cc1ccc(OCCCc2sc(N3CCc4cccc(C(=O)Nc5nc6ccccc6s5)c4C3)nc2C(=O)O)c(F)c1
44%
